Test: Cytotoxicity against hFOB 1.19 cells assessed as inhibition of cell growth incubated for 48 hrs by cell titer based MTS assay
Assay type: toxicity
Settings: human
Binary label based on IC50 at 48 h with cut-off 20 µM: below gives 1 (yes), not below gives 0 (no).

- input smiles: "Cn1cc(C(=O)Nc2sc3c(c2C#N)CCN(C(=O)Nc2ccccn2)C3)cn1"
  class: "0 (no)"
- input smiles: "Cn1cc(C(=O)Nc2sc3c(c2C#N)CCN(C(=O)c2ccc(Br)s2)C3)cn1"
  class: "1 (yes)"
- input smiles: "COc1ncccc1NC(=O)N1CCc2c(sc(NC(=O)c3cnn(C)c3)c2C#N)C1"
  class: "1 (yes)"
- input smiles: "COc1ccc(NC(=O)N2CCc3c(sc(NC(=O)c4cnn(C)c4)c3C#N)C2)cc1"
  class: "1 (yes)"
- input smiles: "Cc1ccc(C(=O)N2CCc3c(sc(NC(=O)c4cnn(C)c4)c3C#N)C2)o1"
  class: "1 (yes)"
